- Test system: normal primary NK cells, pool 2 (3 donors) (IL-2 2.5 ng/mL)
- assay name: percent inhibition of viability; higher = more inhibition;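 note: normalised to DMSO-only wells as negative and benzethonium chloride as positive control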
- details: 72 h; 1000 nM
Would you kindly list percent inhibition of viability for each of these compounds?
Numbers only, in %.

Some solved cases for reference:
[
  {
    "compound": "COc1cc2c(cc1O)CC[C@@H]1[C@@H]2CC[C@]2(C)[C@@H](O)CC[C@@H]12 [2-methoxyestradiol] (max concentration tested 10000 nM)",
    "test target": "normal primary NK cells, pool 2 (3 donors) (IL-2 2.5 ng/mL)",
    "units of measure": "%",
    "percent inhibition of viability": 0.1
  },
  {
    "compound": "CC1=C(/C=C/C(C)=C/C=C/C(C)=C/C(=O)O)C(C)(C)CCC1 [Tretinoin] (max concentration tested 10000 nM)",
    "test target": "normal primary NK cells, pool 2 (3 donors) (IL-2 2.5 ng/mL)",
    "units of measure": "%",
    "percent inhibition of viability": -13.1
  },
  {
    "compound": "CN(c1ncccc1CNc1nc(Nc2ccc3c(c2)CC(=O)N3)ncc1C(F)(F)F)S(C)(=O)=O (max concentration tested 10000 nM)",
    "test target": "normal primary NK cells, pool 2 (3 donors) (IL-2 2.5 ng/mL)",
    "units of measure": "%",
    "percent inhibition of viability": -4.87
  },
  {
    "compound": "COc1ncc(-c2ccc3nccc(-c4ccnnc4)c3c2)cc1NS(=O)(=O)c1ccc(F)cc1F [Omipalisib] (max concentration tested 1000 nM)",
    "test target": "normal primary NK cells, pool 2 (3 donors) (IL-2 2.5 ng/mL)",
    "units of measure": "%",
    "percent inhibition of viability": 47.5
  },
  {
    "compound": "NC(=O)c1ccc(I)c([N+](=O)[O-])c1 [Iniparib] (max concentration tested 10000 nM)",
    "test target": "normal primary NK cells, pool 2 (3 donors) (IL-2 2.5 ng/mL)",
    "units of measure": "%",
    "percent inhibition of viability": -0.1
  },
  {
    "compound": "CCn1c(-c2nonc2N)nc2cnc(Oc3cccc(NC(=O)c4ccc(OCCN5CCOCC5)cc4)c3)cc21 (max concentration tested 10000 nM)",
    "test target": "normal primary NK cells, pool 2 (3 donors) (IL-2 2.5 ng/mL)",
    "units of measure": "%",
    "percent inhibition of viability": 9.21
  }
]

Attention now turns to another entry.
Output measured percent inhibition of viability for this item: O=C(/C=C/c1cccnc1)NCCCCC1CCN(C(=O)c2ccccc2)CC1 [Daporinad] (max concentration tested 1000 nM) 95.7

###

Would you kindly list percent inhibition of viability for each of these compounds?
- Tested on: NKL (IL-2 2.5 ng/mL)
- assay name: percent inhibition of viability; higher = more inhibition
- details: 72 h; 10 nM
Include the unit after the number when you answer.

Some solved cases for reference:
[
  {
    "compound": "O=c1[nH]c(=O)n([C@H]2C[C@H](O)[C@@H](CO)O2)cc1F [Floxuridine] (max concentration tested 10000 nM)",
    "percent inhibition of viability": "15.7%"
  },
  {
    "compound": "CCOc1cc2ncc(C#N)c(Nc3ccc(OCc4ccccn4)c(Cl)c3)c2cc1NC(=O)/C=C/CN(C)C [Neratinib] (max concentration tested 1000 nM)",
    "percent inhibition of viability": "8.45%"
  },
  {
    "compound": "CCN1CCN(c2ccc(Nc3cc(N(C)C(=O)Nc4c(Cl)c(OC)cc(OC)c4Cl)ncn3)cc2)CC1 [NVP-BGJ398] (max concentration tested 1000 nM)",
    "percent inhibition of viability": "0.95%"
  }
]

Report percent inhibition of viability for each item below.
1. CN1CCN(c2cc(C(=O)Nc3ccc4c(c3)-c3c(c(C(N)=O)nn3-c3ccc(F)cc3)CC4)c(Cl)cn2)CC1 [PHA 408] (max concentration tested 10000 nM)
2. O=c1cc(N2CCOCC2)oc2c(-c3ccccc3)cccc12 (max concentration tested 100000 nM)
3. CCN(CC)C(=S)SSC(=S)N(CC)CC [Disulfiram] (max concentration tested 100000 nM)
4. CS(=O)(=O)CCNCc1ccc(-c2ccc3ncnc(Nc4ccc(OCc5cccc(F)c5)c(Cl)c4)c3c2)o1 [Lapatinib] (max concentration tested 1000 nM)

1: -8.26%; 2: -14.3%; 3: 2.6%; 4: 3.19%

Report percent inhibition of viability for each item below.
1. CCS(=O)(=O)c1cccc(-c2cc(C(=O)NC3CCN(C)CC3)c(C)c3[nH]c4ncc(C)cc4c23)c1 [TAK-901] (max concentration tested 1000 nM)
2. COC(=O)c1ccc2c(c1)NC(=O)/C2=C(\Nc1ccc(N(C)C(=O)CN2CCN(C)CC2)cc1)c1ccccc1 [Nintedanib] (max concentration tested 10000 nM)

["-13.2%", "-17.2%"]

###

- Test system: NK-92 (IL-2 2.5 ng/mL)
- assay name: percent inhibition of viability; higher = more inhibition
- details: 72 h; 100 nM
recorded endpoint: percent inhibition of viability (%)
One number for each entry, in %.

Some solved cases for reference:
[
  {
    "molecule": "CN(c1ccccc1CNc1nc(Nc2ccc3c(c2)CC(=O)N3)ncc1C(F)(F)F)S(C)(=O)=O (max concentration tested 10000 nM)",
    "recorded endpoint": "percent inhibition of viability",
    "val": -36
  },
  {
    "molecule": "OC[C@H]1O[C@@H](n2cnc3c2N=CNC[C@H]3O)C[C@@H]1O [Pentostatin] (max concentration tested 10000 nM)",
    "recorded endpoint": "percent inhibition of viability",
    "val": -2.52
  },
  {
    "molecule": "COc1cc(F)c(F)c(Nc2ccc(I)cc2F)c1NS(=O)(=O)C1(C[C@H](O)CO)CC1 [Refametinib] (max concentration tested 10000 nM)",
    "recorded endpoint": "percent inhibition of viability",
    "val": -9.05
  }
]

Output measured percent inhibition of viability for this item: O=C1NC(=O)/C(=C/c2ccc3nccc(-c4ccncc4)c3c2)S1 (max concentration tested 10000 nM) -0.26

###

- System: normal primary NK cells, pool 1 (3 donors) (IL-2 2.5 ng/mL)
- assay name: percent inhibition of viability; higher = more inhibition
- details: 72 h; 1 nM
recorded endpoint: percent inhibition of viability (%)
Answers are plain numbers, in %.

Some solved cases for reference:
[
  {
    "molecule": "CC1(C)CCC(CN2CCN(c3ccc(C(=O)NS(=O)(=O)c4ccc(NCC5CCOCC5)c([N+](=O)[O-])c4)c(Oc4cnc5[nH]ccc5c4)c3)CC2)=C(c2ccc(Cl)cc2)C1 [Venetoclax] (max concentration tested 10000 nM)",
    "units of measure": "%",
    "val": -1.92
  },
  {
    "molecule": "CCn1c(-c2nonc2N)nc2c(C#CC(C)(C)O)ncc(OC[C@H]3CCCNC3)c21 (max concentration tested 10000 nM)",
    "units of measure": "%",
    "val": -8.01
  },
  {
    "molecule": "COc1cc([C@@H]2c3cc4c(cc3[C@@H](O[C@@H]3O[C@@H]5CO[C@@H](c6cccs6)O[C@H]5[C@H](O)[C@H]3O)[C@H]3COC(=O)[C@H]23)OCO4)cc(OC)c1O [Teniposide] (max concentration tested 10000 nM)",
    "units of measure": "%",
    "val": 2.23
  },
  {
    "molecule": "COc1ccc(C[C@H](NC(=O)[C@H](C)NC(=O)CN2CCOCC2)C(=O)N[C@@H](Cc2ccccc2)C(=O)C2(C)CO2)cc1 (stereo in doubt) [ONX-0914] (max concentration tested 10000 nM)",
    "units of measure": "%",
    "val": -4.25
  },
  {
    "molecule": "NC(=O)c1ccc(I)c([N+](=O)[O-])c1 [Iniparib] (max concentration tested 10000 nM)",
    "units of measure": "%",
    "val": 8.54
  },
  {
    "molecule": "S=c1[nH]cnc2nc[nH]c12 [Mercaptopurine] (max concentration tested 10000 nM)",
    "units of measure": "%",
    "val": -1.1
  },
  {
    "molecule": "CN(c1ncccc1CNc1nc(Nc2ccc3c(c2)CC(=O)N3)ncc1C(F)(F)F)S(C)(=O)=O (max concentration tested 10000 nM)",
    "units of measure": "%",
    "val": -2.69
  }
]

Output measured percent inhibition of viability for this item: COC(=O)c1ccc2c(c1)NC(=O)/C2=C(\Nc1ccc(N(C)C(=O)CN2CCN(C)CC2)cc1)c1ccccc1 [Nintedanib] (max concentration tested 10000 nM) -7.78

###

- Tested on: DERL-7 (IL-2 2.5 ng/mL)
- assay name: percent inhibition of viability; higher = more inhibition
- details: 72 h; 1000 nM
Output schema: class label derived from percent inhibition of viability. Mapping: lower range: < 30%; middle range: ≥ 30% and < 70%; upper range: ≥ 70%

Band for O=C(Nc1ccncc1)C(=O)c1cn(Cc2ccc(Cl)cc2)c2ccccc12 [Indibulin] (max concentration tested 10000 nM) ? middle range

Band for FC(F)(F)c1ccc(/C=C/c2nc(COc3ccc(CCCCn4ccnn4)cc3)co2)cc1 [Mubritinib] (max concentration tested 1000 nM) ? lower range

Band for CN1CCN(c2cc(C(=O)Nc3ccc4c(c3)-c3c(c(C(N)=O)nn3-c3ccc(F)cc3)CC4)c(Cl)cn2)CC1 [PHA 408] (max concentration tested 10000 nM) ? middle range

Band for Cc1cc(Nc2cc(CN3CCOCC3)c3nc(C)c(Cc4ccc(Cl)cc4F)n3n2)n[nH]1 [Gandotinib] (max concentration tested 10000 nM) ? upper range

Band for O=C(O)CC1CC(c2ccccc2)=NO1 (stereo unspecified) [VGX-1027] (max concentration tested 10000 nM) ? lower range

Band for O=C(/C=C/c1cccnc1)NCCCCC1CCN(C(=O)c2ccccc2)CC1 [Daporinad] (max concentration tested 1000 nM) ? upper range

Band for Cc1c2oc3c(C)ccc(C(=O)N[C@@H]4C(=O)N[C@H](C(C)C)C(=O)N5CCC[C@H]5C(=O)N(C)CC(=O)N(C)[C@@H](C(C)C)C(=O)O[C@@H]4C)c3nc-2c(C(=O)N[C@@H]2C(=O)N[C@H](C(C)C)C(=O)N3CCC[C@H]3C(=O)N(C)CC(=O)N(C)[C@@H](C(C)C)C(=O)O[C@@H]2C)c(N)c1=O [Dactinomycin] (max concentration tested 1000 nM) ? upper range

Origin of values: the supplement of paper PMC5908809
